- measurementTarget: EGFR (form used in the assay not stated) (human, UniProt P00533 25-645, limits assumed)
- assayComment: ELISA, NEM conjugate, 10 nM
measure: binding relative to P54AR4-83v2 parent (ratio)

{"columns": ["binder", "observedValue"],
 "data": [
  ["P54AR4-83v2 R54C, NEM conjugate (designed binder, not shown: small tags and cut ends, N-ethyl maleimide (NEM) on Cys 54) LPAPKNLVVSEVTEDSARLSWDDPWAFYESFLIQYQESEKVGEAIVLTVPGSECSYDLTGLKPGTEYTVSIYGVHNVYKDTNMRGLPLSAIFTT", 0.89],
  ["P54AR4-83v2 T93C, NEM conjugate (designed binder, not shown: small tags and cut ends, N-ethyl maleimide (NEM) on Cys 93) LPAPKNLVVSEVTEDSARLSWDDPWAFYESFLIQYQESEKVGEAIVLTVPGSERSYDLTGLKPGTEYTVSIYGVHNVYKDTNMRGLPLSAIFCT", 0.96],
  ["P54AR4-83v2 P2C, NEM conjugate (designed binder, not shown: small tags and cut ends, N-ethyl maleimide (NEM) on Cys 2) LCAPKNLVVSEVTEDSARLSWDDPWAFYESFLIQYQESEKVGEAIVLTVPGSERSYDLTGLKPGTEYTVSIYGVHNVYKDTNMRGLPLSAIFTT", 0],
  ["P54AR4-83v2 T81C, NEM conjugate (designed binder, not shown: small tags and cut ends, N-ethyl maleimide (NEM) on Cys 81) LPAPKNLVVSEVTEDSARLSWDDPWAFYESFLIQYQESEKVGEAIVLTVPGSERSYDLTGLKPGTEYTVSIYGVHNVYKDCNMRGLPLSAIFTT", 0.5]
]}
